Test: Acute toxicity, minimal motor impairment (rotorod), mice
Format: in vivo
Conditions: mice, 300 mg/kg, 4 h, rotorod
reported.property: TOX 300 4 h (animals toxic/tested)

Here are 3 compounds together with their reported answers.
{"columns": ["compound", "TOX 300 4 h (animals toxic/tested)"],
 "data": [
  ["CCOC(=O)C1[C@@H]2[C@@H](OS(N)(=O)=O)[C@@H]3O[C@H](c4ccc(OC)cc4)OC[C@H]3O[C@H]12 (stereo partly shown) [Compound 17b]", "0/2"],
  ["CCOC(=O)C1[C@@H]2[C@@H](O)[C@@H]3O[C@H](c4ccc(OC)cc4)OC[C@H]3O[C@H]12 (stereo partly shown) [Compound 16]", "1/2"],
  ["CCOC(=O)C1[C@@H]2[C@@H](O)[C@@H]3O[C@H](c4ccc(C(C)C)cc4)OC[C@H]3O[C@H]12 (stereo partly shown) [Compound 20b]", "0/2"]
]}

Now for another entry.
Exercise: For the compound CCOC(=O)[C@@H]1[C@H]2O[C@@H]3CO[Si](C(C)(C)C)(C(C)(C)C)O[C@H]3/C(=N/O)[C@H]21 [Compound 4] , give its measured TOX 300 4 h (animals toxic/tested) value.
Key: 0/2
